Known Pointed-end depolymerization rate of a selection of compounds
- MEASURED TARGET: UniProt P68135
- EXPERIMENT: TIRF microscopy of actin filament severing and depolymerization
- Assay type: biochemical, rabbit
- Design: Actin was purified from rabbit muscle acetone powder; tissue Pel-Freez Biologicals (acetone powder); host or cells: rabbit muscle acetone powder
- RECORDED CONDITIONS: compound at 200 μM; standard deviations 0.1-0.3 subunits/s
Value expressed in subunits/s; do not type the unit.

Enquiry: Please indicate Pointed-end depolymerization rate recorded for C=CCC[C@@H]1CCC[C@]2(CCC[C@@H](CCCNC(=O)[C@@H](C)[C@@H](O)CNC(=O)CCOC)O2)O1
Return: 0.41

---
Enquiry: // fetch Pointed-end depolymerization rate given entry COCCC(=O)NC[C@H](O)[C@H](C)C(=O)NCCCCC(C)C
Return: 0.21

Enquiry: Return reported Pointed-end depolymerization rate. Input compound: C=CCC[C@@H]1CCC[C@]2(CCC[C@@H](CCCNC(=O)[C@@H](C)[C@@H](O)CNC(=O)CC3O[C@H](CC(=O)/C=C/C)CCC3C)O2)O1 (stereo partly shown)
Return: 0.57

Enquiry: Supply measured Pointed-end depolymerization rate of C=C[C@@H](C)CC[C@@H]1CCC[C@]2(CCC(C)[C@@H](CCCNC(C)=O)O2)O1 (stereo partly shown) in your reply.
Return: 0.32

* * *

Listed here: items and their measured No. of breaks per 100 μm.
- MEASURED TARGET: filamentous actin (Oryctolagus cuniculus)
- EXPERIMENT: TIRF microscopy of actin filament severing and depolymerization
- Type: biochemical, rabbit
- Set-up: Actin was purified from rabbit muscle acetone powder; tissue Pel-Freez Biologicals (acetone powder); host or cells: rabbit muscle acetone powder
- RECORDED CONDITIONS: compound at 200 μM
The reply should contain only the number, in per 100 μm.

Known results for compounds:
Enquiry: Quick one: give measured No. of breaks per 100 μm for C=CCC[C@@H]1CCC[C@]2(CCC[C@@H](CCCNC(=O)[C@@H](C)[C@@H](O)CNC(=O)CC3O[C@H](CC(=O)/C=C/C)CCC3C)O2)O1 (stereo partly shown) [Analog 3]
Return: 13.3

Enquiry: For the compound C=C[C@@H](C)CC[C@@H]1CCC[C@]2(CCC(C)[C@@H](CCCNC(C)=O)O2)O1 (stereo partly shown) [Analog 7] , give its measured No. of breaks per 100 μm value.
Return: 0.2

Now look at this one.
Enquiry: Tell us which No. of breaks per 100 μm value is on record for C=CCC[C@@H]1CCC[C@]2(CCC[C@@H](CCCNC(=O)[C@@H](C)[C@@H](O)CNC(=O)CCOC)O2)O1 [Analog 6]
Return: 3.4

* * *

- MEASURED TARGET: filamentous actin (Oryctolagus cuniculus, UniProt P68135)
- EXPERIMENT: TIRF microscopy of actin filament severing and depolymerization
- Type: biochemical, rabbit
- Parameters: Actin was purified from rabbit muscle acetone powder; tissue Pel-Freez Biologicals (acetone powder); host or cells: rabbit muscle acetone powder
- RECORDED CONDITIONS: compound at 200 μM; standard deviations 0.4-0.6 subunits/s
MEASURED METRIC: Barbed-end depolymerization rate (subunits/s)
Provide only the numeric value, understood in subunits/s.

Some compounds with recorded Barbed-end depolymerization rate:
Enquiry: Return reported Barbed-end depolymerization rate. Input compound: C=CCC[C@@H]1CCC[C@]2(CCC[C@@H](CCCNC(=O)[C@@H](C)[C@@H](O)CNC(=O)CCOC)O2)O1
Return: 2.29

Enquiry: For C=C[C@@H](C)CC[C@@H]1CCC[C@]2(CCC(C)[C@@H](CCCNC(C)=O)O2)O1 (stereo partly shown) , write its Barbed-end depolymerization rate.
Return: 1.87

***
Enquiry: Respond only with Barbed-end depolymerization rate recorded for COCCC(=O)NC[C@H](O)[C@H](C)C(=O)NCCCCC(C)C
Return: 2.15

Enquiry: Provide Barbed-end depolymerization rate value for the following compound: C=CCC[C@@H]1CCC[C@]2(CCC[C@@H](CCCNC(=O)[C@@H](C)[C@@H](O)CNC(=O)CC3O[C@H](CC(=O)/C=C/C)CCC3C)O2)O1 (stereo partly shown)
Return: 1.84

* * *

- Tested on: F-actin in A549 cells
- EXPERIMENT: Fluorescent visualization of F-actin in A549 cells (Alexa Fluor 488 phalloidin)
- Assay type: cell-based, human
- RECORDED CONDITIONS: 2 h incubation
MEASURED METRIC: concentration inducing actin depolymerization in A549 cells (µM)
The reply should contain only the number, in µM.

Enquiry: For the molecule C/C=C/C(=O)C[C@@H]1CCC(C)C(CC(=O)NC[C@H](O)[C@H](C)C(=O)NCCC[C@H]2O[C@@]3(CCC[C@@H](CC[C@H](C)/C=C(\C)C(C)O)O3)CCC2C)O1 (some centres unmarked) [Bistramide A (1), bistramide A, reference compound] , report concentration inducing actin depolymerization in A549 cells.
Return: 0.15

Enquiry: Return concentration inducing actin depolymerization in A549 cells (reported value) for this molecule: C=C[C@@H](C)CC[C@@H]1CCC[C@]2(CCC(C)[C@@H](CCCNC(=O)[C@@H](C)[C@@H](O)CNC(=O)CC3O[C@H](CC(=O)/C=C/C)CCC3C)O2)O1 (some centres unmarked) [Analog 2]
Return: 0.5

Enquiry: Note concentration inducing actin depolymerization in A549 cells for the molecule shown: C=CCC[C@@H]1CCC[C@]2(CCC[C@@H](CCCNC(=O)[C@@H](C)[C@@H](O)CNC(=O)CC3O[C@H](CC(=O)/C=C/C)CCC3C)O2)O1 (some centres unmarked) [Analog 3]
Return: 2

Enquiry: Return the recorded concentration inducing actin depolymerization in A549 cells value; entry: C=CC[C@@H]1CCCC(CC(=O)NC[C@H](O)[C@H](C)C(=O)NCCC[C@H]2O[C@@]3(CCC[C@@H](CC[C@H](C)C=C)O3)CCC2C)O1 (some centres unmarked) [Analog 4]
Return: 100

Further cases:
Enquiry: Give the value of concentration inducing actin depolymerization in A549 cells reported for the following: C=C[C@@H](C)CC[C@@H]1CCC[C@]2(CCC(C)[C@@H](CCCNC(=O)[C@@H](C)[C@@H](O)CNC(=O)CCOC)O2)O1 (some centres unmarked) [Analog 5]
Return: 100

* * *

- MEASURED TARGET: G-actin (Oryctolagus cuniculus, UniProt P68135)
- Construct: Actin was purified from rabbit muscle acetone powder; tissue Pel-Freez Biologicals (acetone powder); host or cells: rabbit muscle acetone powder
- EXPERIMENT: Isothermal titration calorimetry, binding to monomeric actin
- Set-up: species or system rabbit
- RECORDED CONDITIONS: isothermal titration calorimetry, 25° C.; read-out: Kd
MEASURED METRIC: pKd
A value of pKd is the negative decimal logarithm of a concentration given in moles per litre.

Enquiry: Return value of pKd for input C=CCC[C@@H]1CCC[C@]2(CCC[C@@H](CCCNC(=O)[C@@H](C)[C@@H](O)CNC(=O)CC3O[C@H](CC(=O)/C=C/C)CCC3C)O2)O1 (stereo partly drawn) , no commentary.
Return: 5.82

Enquiry: Output measured pKd for this item: COCCC(=O)NC[C@H](O)[C@H](C)C(=O)NCCC[C@H]1O[C@@]2(CCC[C@@H](CC[C@H](C)/C=C(\C)[C@H](C)O)O2)CCC1C (stereo partly drawn)
Return: 8.05

Enquiry: Give recorded pKd. C=C[C@@H](C)CC[C@@H]1CCC[C@]2(CCC(C)[C@@H](CCCNC(=O)[C@@H](C)[C@@H](O)CNC(=O)CC3O[C@H](CC(=O)/C=C/C)CCC3C)O2)O1 (stereo partly drawn)
Return: 7.15

Enquiry: Output pKd of C=CC[C@@H]1CCCC(CC(=O)NC[C@H](O)[C@H](C)C(=O)NCCC[C@H]2O[C@@]3(CCC[C@@H](CC[C@H](C)C=C)O3)CCC2C)O1 (stereo partly drawn)
Return: 6.50

Enquiry: Kindly indicate its recorded pKd. Item: C=CCC[C@@H]1CCC[C@]2(CCC[C@@H](CCCNC(=O)[C@@H](C)[C@@H](O)CNC(=O)CCOC)O2)O1
Return: 6.17

---
Enquiry: // Input: C=C[C@@H](C)CC[C@@H]1CCC[C@]2(CCC(C)[C@@H](CCCNC(=O)[C@@H](C)[C@@H](O)CNC(=O)CCOC)O2)O1 (stereo partly drawn) . Output its pKd only.
Return: 7.37

Entry source: patent US8350062B2
